tested on: Acinetobacter baumannii ATCC17961; test: Antimicrobial susceptibility testing: 90% growth inhibitory concentration (IC90) determination, Iso-Sensitest broth; assay type: cell-based; settings: Acinetobacter baumannii, ATCC17961, 90% growth inhibitory concentration, Acinetobacter baumannii ATCC17961, Iso-Sensitest broth; read-out: ATCC 17961 IC90
Where a name gives a salt, the structure may show the parent alone.
READOUT: IC90
A complete answer gives the number followed by the unit.

compound="COc1ccc(-c2cnc(C(=O)Nc3ccc(C(=O)N4CCN(C(=O)[C@@H]5CCNC5)CC4)c(Cl)c3)n2C)c(F)c1F [Example 138, formate]" readout=IC90 result="30 nM"

Data request: Any idea what IC90 was measured for COc1ccc(-c2cnc(C(=O)Nc3ccc(C(=O)N4CC(OCCN)C4)c(Cl)c3)n2C)c(F)c1F [Example 18, formate] ?
Data returned: 70 nM

Data request: Any idea what IC90 was measured for Cn1c(-c2ccc(OCF)c(F)c2F)cnc1C(=O)Nc1ccc(C(=O)N2CCC(C(=O)N[C@@H]3CCNC3)CC2)c(Cl)c1 [Example 90, trifluoroacetate] ?
Data returned: 40 nM
